Tested on: U2OS PTBP1-KO;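 note: FLICK assay: SYTOX Green fluorescence of dead cells tracked over time after drugging in 96-well plates, with total cell counts taken from Triton X-100 lysed wells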
ASSAY_COMMENT: maximum observed lethal fraction; higher = more cell death
CONDITION_CONTEXT: 0.316 µM
Would you mind telling me the reported maximum observed lethal fraction of each entry?
Reply briefly: the number, and no unit.

Fill in the blank: the reported maximum observed lethal fraction of C=CC(=O)Nc1ccc(C(=O)Nc2[nH]nc3c2CN(C(=O)N[C@H](CN(C)C)c2ccccc2)C3(C)C)cc1 [YKL-5-124] is ____.
0.0854

Need maximum observed lethal fraction, item O=C(O)C1(C(=O)O)CCC1.[NH2-].[NH2-].[Pt+2] [Carboplatin]
0.0634

Entry under review: CN(C)C/C=C/C(=O)Nc1ccc(C(=O)N2CCC[C@@H](Nc3ncc(Cl)c(-c4c[nH]c5ccccc45)n3)C2)cc1 [THZ531] . Reported maximum observed lethal fraction?
0.17

So what does the record say about maximum observed lethal fraction for CN(C)CC[C@H](CSc1ccccc1)Nc1ccc(S(=O)(=O)NC(=O)c2ccc(N3CCN(Cc4ccccc4-c4ccc(Cl)cc4)CC3)cc2)cc1[N+](=O)[O-] [ABT-737] ?
0.0737

Report maximum observed lethal fraction for C/C=C(/C)C(=O)O[C@H]1C(C)=C2[C@H]([C@@H]1OC(=O)CCCCCCC)[C@@](C)(OC(C)=O)C[C@H](OC(=O)CCC)[C@@]1(O)[C@H]2OC(=O)[C@@]1(C)O [Thapsigargin] please.
0.324

Please look up its maximum observed lethal fraction: Nc1cc(C(F)(F)F)c(-c2cc(N3CCOCC3)nc(N3CCOCC3)n2)cn1 [Buparlisib]
0.0993

May I ask what maximum observed lethal fraction has been recorded for COc1cc([C@@H]2c3cc4c(cc3[C@@H](O[C@@H]3O[C@@H]5CO[C@@H](C)O[C@H]5[C@H](O)[C@H]3O)[C@H]3COC(=O)[C@H]23)OCO4)cc(OC)c1O [Etoposide] ?
0.0848

Query (molecule): CN(C)C(=O)c1cc2cnc(Nc3ccc(N4CCNCC4)cn3)nc2n1C1CCCC1 [Ribociclib] ; field requested: maximum observed lethal fraction
0.0704

Fill in: maximum observed lethal fraction of Cc1cc(Nc2ccc(NC(=O)c3ccc(Nc4ccnc5ccccc45)cc3)cc2)nc(N)n1 [SGI-1027] is ___
0.0612

I would be grateful if you could share the reported maximum observed lethal fraction for Nc1ccc(-c2ccc3ncc4ccc(=O)n(-c5cccc(C(F)(F)F)c5)c4c3c2)cn1 [Torin2] .
0.196

What maximum observed lethal fraction value was documented for this molecule, COC(=O)C[C@](O)(CCCC(C)(C)O)C(=O)O[C@@H]1C(OC)=C[C@]23CCCN2CCc2cc4c(cc2[C@H]13)OCO4 [Homoharringtonine] ?
0.109

So what does the record say about maximum observed lethal fraction for CO[C@H]1C[C@@H]2CC[C@@H](C)[C@@](O)(O2)C(=O)C(=O)N2CCCC[C@H]2C(=O)O[C@H]([C@H](C)C[C@@H]2CC[C@@H](O)[C@H](OC)C2)CC(=O)[C@H](C)/C=C(\C)[C@@H](O)[C@@H](OC)C(=O)[C@H](C)C[C@H](C)/C=C/C=C/C=C/1C [Rapamycin] ?
0.0711

Quick one: maximum observed lethal fraction for CC[C@@]1(O)C(=O)OCc2c1cc1n(c2=O)Cc2cc3c(CN(C)C)c(O)ccc3nc2-1 [Topotecan] ?
0.0808
